- System: Plasmodium falciparum
- assay.method.text: GSK_TCMDC: Inhibition of Plasmodium falciparum 3D7 in whole red blood cells, using parasite LDH activity as an index of growth. Test compounds present at 2uM
- Type: functional
parameter: Inhibition (%)
I only need the number, in %, no unit after it.

Worked cases, Inhibition given:
{"columns": ["compound", "units.label", "Inhibition"],
 "data": [
  ["CCCNCc1ccc(-c2ccc(CN(CCOC)C(=O)[C@H]3CCCO3)cc2)nc1.O=C(O)C(F)(F)F", "%", 98],
  ["C=CCOC(=O)N1CCC(CNCc2ccc(-c3ccc(-c4nc5cc(C(F)(F)F)ccc5[nH]4)cc3)cc2)C1.O=C(O)C(F)(F)F (stereo not drawn)", "%", 100]
]}

Exercise: Find the measured Inhibition of Cc1ccccc1C1CCN(c2ccc(C(=O)Nc3ccccc3)cn2)CC1.O=C(O)C(F)(F)F with Plasmodium falciparum as test system.
Key: 95

The measurements presented in this section are drawn from ChEMBL document CHEMBL1157539.
